assay: Dissociation constant, pKa of the compound at pH < 5; type: physicochemical
Quantity Measured: pKa

[
  {
    "Structure String": "O=c1[nH]c(=O)n([C@H]2C[C@H](O)[C@@H](CO)O2)cc1C#Cc1c2ccccc2c(C#Cc2ccc(NC3CCCCC3)cc2)c2ccccc12",
    "Measured Result": 3.9
  },
  {
    "Structure String": "CCCCNc1ccc(C#Cc2c3ccccc3c(C#Cc3cn([C@H]4C[C@H](O)[C@@H](CO)O4)c(=O)[nH]c3=O)c3ccccc23)cc1",
    "Measured Result": 3.5
  },
  {
    "Structure String": "CCC(CC)Nc1ccc(C#Cc2c3ccccc3c(C#Cc3cn([C@H]4C[C@H](O)[C@@H](CO)O4)c(=O)[nH]c3=O)c3ccccc23)cc1",
    "Measured Result": 3.7
  },
  {
    "Structure String": "CNc1ccc(C#Cc2c3ccccc3c(C#Cc3cn([C@H]4C[C@H](O)[C@@H](CO)O4)c(=O)[nH]c3=O)c3ccccc23)cc1",
    "Measured Result": 3.7
  },
  {
    "Structure String": "CN(C)c1ccc(C#Cc2c3ccccc3c(C#Cc3cn([C@H]4C[C@H](O)[C@@H](CO)O4)c(=O)[nH]c3=O)c3ccccc23)cc1",
    "Measured Result": 3
  }
]

a. Nc1ccc(C#Cc2c3ccccc3c(C#Cc3cn([C@H]4C[C@H](O)[C@@H](CO)O4)c(=O)[nH]c3=O)c3ccccc23)cc1
b. CC(C)(C)Nc1ccc(C#Cc2c3ccccc3c(C#Cc3cn([C@H]4C[C@H](O)[C@@H](CO)O4)c(=O)[nH]c3=O)c3ccccc23)cc1
Q: Which item exceeds the other in pKa, a or b ? Reply with the label of the item you choose.
Ans: b
(b: 6.1, a: 3.9)

----------
assay: Dissociation constant, pKa of the compound at pH 4.8 to 8.2; assay type: physicochemical
Quantity Measured: pKa
Would you mind answering with just the numeric figure?

Q: pKa for CC(C)(C)Nc1ccc(C#Cc2c3ccccc3c(C#Cc3cn([C@H]4C[C@H](O)[C@@H](CO)O4)c(=O)[nH]c3=O)c3ccccc23)cc1 ?
Ans: 6.1
